# Test system: Mycobacterium tuberculosis
# METHOD_NOTES: AntiMycobacterium tuberculosis activity 1-week 7H9/glucose/BSA/Tx MIC (uM)
# Format: functional
# DETAILS: 168 h
Binning rule for recorded MIC: low range (below 5 µM), mid range (5 µM to below 20 µM), high range (20 µM or more)

Could you tell me which band "COc1cccc(OC)c1C(=O)Nc1ccc(Cl)c(-c2nc3ccccc3s2)c1" belongs to? high range

Note, next up: "Cc1cccc(Cn2ccc(NC(=O)c3ccc4c(c3)OCO4)n2)c1" mid range

// repeat for "CCc1ccc([C@@H]2C[C@H](C(F)(F)F)n3ncc(C(=O)NCc4ccc(OC)cc4)c3N2)cc1" and report low range

Again, but for "Brc1cncc(-c2cc(NCCCn3ccnc3)nc(-c3ccccc3)n2)c1" low range

Consider next the compound "COc1ccc(C2(C(=O)Nc3ccc(Br)cc3)CCCC2)cc1" in the same way. mid range

Moving on to the next compound: "O=C1O[C@@H](CO)CN1c1cc(F)c(C2=CCN(Cc3ccccc3)CC2)c(F)c1" low range

// same read-out, input: "O=C(c1[nH]nc2c1CCCC2)N1CCN(Cc2ccc3c(c2)OCO3)CC1" high range

CC(Oc1ccccc1)C(=O)Nc1nc(-c2ccccn2)cs1 (stereo unspecified) , same question. mid range

Please do the same for "CC(C)(C(=O)Nc1ccc(F)cc1)n1cc(-c2ccccc2F)cn1" as well. low range

Same thing, different compound: "COc1cccc(-n2nnnc2S(C)(=O)=O)c1" mid range

Same lookup for "CCc1c(C)nc(-n2nc(C)cc2NC(=O)c2ccccc2SC)[nH]c1=O" , please. mid range

// next record "O=C(COc1cccc(F)c1)Nc1nc(-c2ccccn2)cs1" mid range

What do you have for CC(C)n1ncc2c(C(=O)NCC(c3cccs3)N3CCOCC3)cc(-c3ccccc3)nc21 (stereo unspecified) ? low range

Another: "Cn1ccnc1CNCCS(=O)(=O)c1cccc(Nc2ccc(-c3cccc(F)c3)cn2)c1" mid range

Another compound to look at: "c1ccc(C[C@@H]2CN(c3nccc(Oc4ccc(-n5ccnc5)cc4)n3)CCN2)cc1" high range

Also, "Clc1ccc(CCNc2cc(-c3ccccc3)nc3ncnn23)cc1" please. high range

Do the same for "Nc1cccnc1Nc1ccc(Cl)cc1" please high range

Entry to check: "Cc1nn(Cc2ccccc2)c(Cl)c1C(=O)NC1CCCCCC1" high range

Can you check "CC(C)(C)c1cnc(NC(=O)c2ccccc2O)s1" next? high range

Then what about the compound CC(=O)NC[C@H]1CN(c2ccc(N3CCSCC3)c(F)c2)C(=O)O1 [SUTEZOLID] ? low range

Same again, this time with "CC(=O)N1CCc2cc3nc(C)cc(C)c3cc21" high range

And what about the compound "O=C(Nc1nnc(-c2ccc(Cl)s2)o1)c1ccc(Cl)s1" ? low range

How about this compound: "Cc1cc(NCCc2ccccc2)nc(NC(=N)Nc2ccc(Cl)cc2)n1" low range

Also need "Cc1cnc(N2CCN[C@@H](Cc3ccccc3)C2)nc1Oc1ccc(-n2ccnc2)cc1" , thanks. mid range

Follow-up item: "COc1cccc(-n2nnnc2S(=O)(=O)Cc2ccccc2)c1" mid range

And "CCOc1ccc(-c2nc(CNCCc3ccc(F)cc3)cs2)cc1" ? mid range

Moving on to the next compound: "Nc1nc2cc(-c3cncc(Oc4ccc(F)cc4)c3)ccc2[nH]1" mid range

Also "O=C(CCC1CCCCC1)Nc1cccc(-c2nnc(-c3ccco3)o2)c1" , if possible. low range

Can you handle "Cc1cc(Cl)ccc1NC(=O)CCc1ccc(S(=O)(=O)NCC(C)C)cc1" next? low range

// same read-out, input: "O=C(c1cc2ccccc2o1)N1CCN(Cc2ccc3c(c2)OCO3)CC1" high range

Same lookup for NC(CC(=O)c1ccc(Cl)cc1Cl)C(Cl)(Cl)Cl (stereo unspecified) , please. mid range

What do we get for "Cc1nnc(NCc2cccc(Cl)c2)c2ccccc12" ? high range

What would you report for "Cc1ccc2nc(Cl)c(CNCc3cccs3)cc2c1" ? high range

Record: "N#Cc1nc(-c2ccccc2)oc1S(=O)(=O)c1ccc(Cl)cc1" low range

Can you handle "O=C(Nc1nnc(-c2ccc(Cl)cc2)o1)c1cccc(C(F)(F)F)c1" next? low range

// same read-out, input: "CS(=O)(=O)Cc1nc2ccccc2oc1=O" mid range

Same thing, different compound: "Cc1cc(OCC(=O)NCc2ccccc2)c2cc(Br)ccc2n1" high range

Next up: "FC(F)(F)c1nnc2ccc(Cl)nn12" low range

And "CNc1snc(C)c1C(=O)NCCOc1ccc(OC)cc1" ? high range

Again, but for "O=C(C1CCN(c2cc(-n3cccc3)ncn2)CC1)N1CCc2ccccc2C1" low range

Then NCC(c1cccs1)S(=O)(=O)c1ccccc1 (stereo unspecified) ? high range

Also need "c1ccc(-c2nc(NC3CCCCC3)cc(C3CC3)n2)nc1" , thanks. high range

Param item: "COc1cccc(OCC(=O)c2ccc(Br)cc2)c1" mid range

"CCOc1ccc(OCC(=O)Nc2cc(C)cc(C)c2)cc1" , same question. high range

Follow-up item: "O=C(NCCc1c[nH]c2ccccc12)c1cc2ccccc2oc1=O" low range

Next compound up: "COc1ccccc1OCCCCn1c(C2CC2)nc2ccccc21" high range

====

Exercise: state measured MIC for each of the molecules provided.
# System: Mycobacterium tuberculosis
# METHOD_NOTES: AntiMycobacterium tuberculosis activity 1-week GAST/Fe MIC (uM)
# Format: functional
# DETAILS: 168 h
Lab book: enter the figure in µM, no units written.

Look up MIC for this molecule: "CCCc1ccc(S(=O)(=O)Nc2ccc(CN3CCN(CC4CC4)CC3)cc2)cc1" 12.5

Proceed to "COc1cc(CN2CCC3(C=Cc4ccccc43)CC2)cc2c1OCO2" 0.6

Query "O=C(Nc1nnc(-c2ccc(Cl)s2)o1)c1ccc(Cl)s1" next 0.78

Then what about the molecule "Nc1c2c(nc3sc4c(c13)CCCC4)CCCC2" ? 1.56

Note, next up: "Cn1c(=O)c2c(S(C)(=O)=O)snc2n(C)c1=O" 4.7

Similarly, "c1ccc(C[C@@H]2CN(c3nccc(Oc4ccc(-n5ccnc5)cc4)n3)CCN2)cc1" ? 37

Query "Nc1nc2cc(-c3cncc(Oc4ccc(F)cc4)c3)ccc2[nH]1" next 6.25

Similarly, "CCc1c(C)nc(-n2nc(C)cc2NC(=O)c2ccccc2SC)[nH]c1=O" ? 0.1

Also "CC(C)(C(=O)Nc1ccc(F)cc1)n1cc(-c2ccccc2F)cn1" ? 2.3

And for "O=C(c1ccco1)N(CCCn1ccnc1)c1nc2c(Cl)cccc2s1" ? 25

Same question, "Cc1nnc(NCc2cccc(Cl)c2)c2ccccc12" this time 0.2

Please answer likewise for "COc1cccc(-n2nnnc2S(C)(=O)=O)c1" 0.78

Next up: "CCCCS(=O)(=O)Nc1ccc2cnn(C)c2c1" 0.3

Likewise for "CCCn1c(CNc2ccccc2O)nc2ccccc21" ? 1.56

COc1cccc(-c2nc3c(N4CCCC4)cccc3n2CC2CCCN2)n1 (stereo not given) , same question. 4.7

Param item: "O=C(NCc1cc(Cl)cc(Cl)c1)c1c(C(F)(F)F)nc2ccccn12" 0.1

Now try "Cc1ccc2oc(-c3cc(NC(=O)Cc4ccccc4)ccc3Cl)nc2c1" . 6.25

Moving on to "COc1cccc(NC(=O)c2c(NC(=O)c3cccnc3)sc3c2CCC3)c1" 9.4

Please do the same for "Cc1cccc(-c2nc(Nc3ccncn3)c3sccc3n2)n1" as well. 6.25

What do you have for CC(C)=CCC/C(C)=C\CNCCNC1C2CC3CC(C2)CC1C3 (stereo not given) ? 0.39

Note, next up: "Brc1c(-c2ccc3c(c2)OCO3)nc2ncccn12" 0.2

Same again, this time with Cc1ccc(NC(=O)CC2COc3ccccc3O2)cc1Cl (stereo not given) 9.4

Another molecule to look at: "CCc1ccc([C@@H]2C[C@H](C(F)(F)F)n3ncc(C(=O)NCc4ccc(OC)cc4)c3N2)cc1" 0.1

// query: "COc1ccc(-c2nc(-c3cccc(NC(=O)Cc4ccc(F)cc4)c3)no2)cc1OC" 1.56

Another: CCC(Sc1nc2ccccc2o1)C(=O)Nc1nnc(C)s1 (stereo not given) 9.4

Follow-up entry: "Cc1cccc(Cn2ccc(NC(=O)c3ccc4c(c3)OCO4)n2)c1" 0.2

Also "O=C(c1[nH]nc2c1CCCC2)N1CCN(Cc2ccc3c(c2)OCO3)CC1" , if possible. 0.39

Subsequent entry: "Cc1cc(Cl)ccc1NC(=O)CCc1ccc(S(=O)(=O)NCC(C)C)cc1" 2.3

Can you check "O=C(Nc1nnc(-c2ccc(Cl)cc2)o1)c1cccc(C(F)(F)F)c1" next? 0.05

Likewise for "c1coc(CNc2nc(N3CCCCC3)nc3ccccc23)c1" ? 9.4

Would you kindly repeat that for "O=C(NC1=NCCS1)c1sc2cc(F)ccc2c1Cl" ? 0.6

"O=C(Nc1ccc(C(F)(F)F)c(C(F)(F)F)c1)c1cc(Cl)ccc1O" ? 1.56

How about this molecule: CC(=O)NCC1CN(c2ccc(-c3ccc(CO)cc3)c(F)c2)C(=O)O1 (stereo not given) 0.1

// next record "N#Cc1nc(-c2ccccc2)oc1S(=O)(=O)c1ccc(Cl)cc1" 0.6

Now the same for "CC(=O)NC[C@H]1CN(c2ccc(N3CCSCC3)c(F)c2)C(=O)O1" 0.2

Entry to check: "COc1cc(Br)cc2cc(C(=O)Nc3cccc(C(F)(F)F)c3)c(=O)oc12" 1.2

Then "N#Cc1nc(-c2ccccc2F)oc1NCCc1ccccc1" ? 0.78

Same read-out for "CCCn1nnc(NC(=O)COc2ccc(C3CCCCC3)cc2)n1" ? 6.25

Repeat for the following molecule: "O=C(NC1CCCCC1)N1CCN(Cc2ccc3c(c2)OCO3)CC1" 0.78

Queued: "Cn1ccnc1CNCCS(=O)(=O)c1cccc(Nc2ccc(-c3cccc(F)c3)cn2)c1" 25

What do you get for "Cc1cc(C)cc(COc2ccc3c(C)c(CCC(=O)O)c(=O)oc3c2C)c1" ? 6.25

Please answer likewise for "Cc1ccc2nc(C)c(-c3ccn(Cc4ccccc4)n3)n2c1" 0.78

Every entry's value here was drawn from ChEMBL document CHEMBL3832761.
